measuredOn: GSK3β (Homo sapiens)
Sequence (P49841 whole entry, species assumed): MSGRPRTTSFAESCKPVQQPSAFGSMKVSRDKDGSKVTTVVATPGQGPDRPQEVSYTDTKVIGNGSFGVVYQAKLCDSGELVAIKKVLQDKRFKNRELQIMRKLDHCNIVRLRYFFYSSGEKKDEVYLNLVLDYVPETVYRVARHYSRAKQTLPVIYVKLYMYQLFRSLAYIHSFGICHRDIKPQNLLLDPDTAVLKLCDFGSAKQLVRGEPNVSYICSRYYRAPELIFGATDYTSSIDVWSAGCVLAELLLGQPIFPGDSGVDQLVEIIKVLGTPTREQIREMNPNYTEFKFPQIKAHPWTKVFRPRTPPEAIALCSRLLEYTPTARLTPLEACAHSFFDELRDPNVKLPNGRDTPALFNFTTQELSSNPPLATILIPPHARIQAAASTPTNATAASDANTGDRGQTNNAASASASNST
runDescription: GSK3beta assay (SPA, biotinylated phosphorylated CREB peptide, ATP-P33)
Format: biochemical
measurementConditions: −log IC50 (M); 19 nM GSK3β, 5 μM biotinylated phosphorylated CREB peptide, 1 μM ATP, 25° C., one hour
measurementKind: IC50 (M)

Example entries and their recorded answers appear below.
>  <molecule>
N#Cc1cnc(Nc2cccc(C(N)=O)c2)nc1OCc1ccccc1 [Compound 9]

>  <IC50 [M]>
1.82e-08

$$$$
>  <molecule>
N#Cc1cnc(Nc2ccc(C(N)=O)cc2)nc1OCc1ccccc1 [Compound 23]

>  <IC50 [M]>
2.19e-08

$$$$
>  <molecule>
NC(=O)c1cccc(Nc2ncc(Br)c(OCc3ccccc3)n2)c1 [Compound 4]

>  <IC50 [M]>
5.25e-08

$$$$

I. NC(=O)c1cccc(Nc2ncc([N+](=O)[O-])c(NCc3ccccc3)n2)c1 [Compound 1]
II. NC(=O)c1ccc(Nc2ncc(Br)c(OCc3ccccc3)n2)cc1 [Compound 22]
III. NC(=O)c1cccc(Nc2nccc(OCc3ccccc3)n2)c1 [Compound 17]
Incoming: List the 3 entries from lowest IC50 to highest IC50 value. # the answer lists labels in the order requested
Outgoing: II, I, III
(II: 6.46e-08 M, I: 1.82e-07 M, III: 1.41e-06 M)
